Consider the following compounds and their measured half-life readings.
ASSAY_DETAILS: Pharmacokinetics of single intravenous and oral administration in mice
Assay type: in vivo
SETTINGS: mouse, plasma, intravenous injection, 1 mg/kg, read-out: Half-life (T1/2) (converted)
Where a name gives a salt, the structure may show the parent alone.
QUANTITY_KIND: half-life

INSERT INTO measurements (compound, experimental_value) VALUES
  ('CC(C)(O)CN1CCC(COc2cnc(-c3cccc(Cn4c(=O)ccn5c6cc(C#N)ccc6nc45)c3)nc2)CC1 [Hydrochloride of compound 39]', '6.73 h'),
  ('CC(C)N1CCC(COc2cnc(-c3cccc(Cn4c(=O)ccn5c6cc(C#N)ccc6nc45)c3)nc2)CC1 [Hydrochloride of compound 25]', '4.51 h');

* * *

TARGET_OR_SYSTEM: c-Met enzyme (Homo sapiens (Human), UniProt P08581)
Sequence (P08581 956-1390): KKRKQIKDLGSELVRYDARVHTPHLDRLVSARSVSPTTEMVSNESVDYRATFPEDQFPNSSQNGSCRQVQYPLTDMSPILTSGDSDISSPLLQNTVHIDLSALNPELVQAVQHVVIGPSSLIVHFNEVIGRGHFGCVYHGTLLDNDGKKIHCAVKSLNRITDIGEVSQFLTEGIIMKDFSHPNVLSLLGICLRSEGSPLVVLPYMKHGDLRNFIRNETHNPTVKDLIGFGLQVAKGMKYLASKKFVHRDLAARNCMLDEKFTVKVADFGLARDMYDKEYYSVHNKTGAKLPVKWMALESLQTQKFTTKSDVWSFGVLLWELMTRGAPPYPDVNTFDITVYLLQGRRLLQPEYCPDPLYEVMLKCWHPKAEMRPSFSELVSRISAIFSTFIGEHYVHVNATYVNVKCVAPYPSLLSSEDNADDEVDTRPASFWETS
pIC50: −log10 of the molar value. Counter-ions that a name gives are not always drawn.
Use satisfied when the recorded pIC50 is no lower than 8; use not satisfied when it is lower.

INSERT INTO results (compound, assigned_category) VALUES
  ('CCN1CCC(COc2cnc(-c3cccc(Cn4c5c(ccc4=O)-c4cc(C#N)ccc4C5=O)c3)nc2)CC1 [Hydrochloride of compound 12]', 'satisfied'),
  ('CN1CCC(COc2cnc(-c3cccc(Cn4c5c(ccc4=O)-c4cc(C#N)ccc4OC5)c3)nc2)CC1 [Formate of compound 5]', 'not satisfied'),
  ('CN1CCC(COc2cnc(-c3cccc(Cn4c5c(cc(F)c4=O)-c4cc(C#N)ccc4C5(F)F)c3)nc2)CC1 [Hydrochloride of compound 16]', 'not satisfied'),
  ('CC(C)(O)CN1CCC(COc2cnc(-c3cccc(Cn4c(=O)ccn5c6cc(C#N)ccc6nc45)c3)nc2)CC1 [Hydrochloride of compound 39]', 'satisfied');

* * *

ASSAY_DETAILS: Pharmacokinetics of single intravenous and oral administration in mice
Assay type: in vivo
SETTINGS: mouse, plasma, oral administration, 10 mg/kg
Structures can show the parent of a compound that is named as a salt.
Consider the following compounds and their measured bioavailability readings.
QUANTITY_KIND: bioavailability (%)

INSERT INTO results (compound, quantity_kind, experimental_value) VALUES
  ('CC(C)(O)CN1CCC(COc2cnc(-c3cccc(Cn4c(=O)ccn5c6cc(C#N)ccc6nc45)c3)nc2)CC1 [Hydrochloride of compound 39]', 'bioavailability', 82.3),
  ('CC(C)N1CCC(COc2cnc(-c3cccc(Cn4c(=O)ccn5c6cc(C#N)ccc6nc45)c3)nc2)CC1 [Hydrochloride of compound 25]', 'bioavailability', 27);

* * *

Tested on: EBC-1 cells
ASSAY_DETAILS: EBC-1 cell proliferation experiment (CellTiter-Glo)
Format: cell-based, human
SETTINGS: Homo sapiens, EBC-1, 72 h, 3 days
pIC50: −log10 of the molar value. Where a name gives a salt, the structure may show the parent alone.
Use TRUE when the recorded pIC50 is no lower than 8; use FALSE when it is lower.

INSERT INTO measurements (compound, assigned_category) VALUES
  ('CC(C)(O)CN1CCC(COc2cnc(-c3cccc(Cn4c(=O)ccn5c6cc(C#N)ccc6nc45)c3)nc2)CC1 [Hydrochloride of compound 39]', 'TRUE'),
  ('CN1CCC(COc2cnc(-c3cccc(Cn4c5c(ccc4=O)-c4cc(C#N)ccc4C5(F)F)c3)nc2)CC1 [Formate of compound 1]', 'FALSE'),
  ('CN1CCC(COc2cnc(-c3cccc(Cn4c5c(ccc4=O)-c4cc(F)ccc4C5=O)c3)nc2)CC1 [Formate of compound 3]', 'FALSE'),
  ('CN1CCC(COc2cnc(-c3cccc(Cn4c5c(cc(F)c4=O)-c4cc(C#N)ccc4C5(F)F)c3)nc2)CC1 [Hydrochloride of compound 16]', 'FALSE'),
  ('CN1CC2(CC(Oc3cnc(-c4cccc(Cn5c(=O)ccn6c7cc(C#N)ccc7nc56)c4)nc3)C2)C1 [Hydrochloride of compound 28]', 'FALSE');
